assay-target: GTPase HRas (Homo sapiens)
assay-summary: inhibitors of GTP binding to wildtype Ras, dose response, biochemical, multiplex bead flow cytometry (AID 1335)
condition-context: bead-based flow cytometry, Bodipy-GTP binding to GST-Ras; at 100 µM (top of the series)
measure: GTP binding, percent of control (%)
Answer format: numeric, % implied, no suffix.

Completed entries (count: 3):
>  <smiles-entry>
CN(C)c1ccc(/C=C/C=C2/C(=O)NC(=O)N(c3ccccc3)C2=O)cc1

>  <GTP binding, percent of control, %>
81.4

$$$$
>  <smiles-entry>
CCN(CC)c1ccc(/C=N/c2sc3c(c2C#N)C2CCN3CC2)c(O)c1

>  <GTP binding, percent of control, %>
104

$$$$
>  <smiles-entry>
Cc1nc2c(=O)n(C)c(=O)nc-2n(C)n1

>  <GTP binding, percent of control, %>
98.5

$$$$

Give GTPase HRas (Homo sapiens) GTP binding, percent of control for Cc1cc(C)cc(N2C(=O)NC(=O)/C(=C\C=C\c3ccco3)C2=O)c1
83.8

Hello, I am looking for reported GTP binding, percent of control with GTPase HRas (Homo sapiens) for Cc1sc(-n2c(C)cc(C=C3C(=O)NC(=O)NC3=O)c2C)c(C#N)c1C . Could you help?
68.9

Query GTP binding, percent of control on GTPase HRas (Homo sapiens) for O=c1[nH]c(=S)[nH]c(O)c1N=Nc1ccc(S(=O)(=O)N2CCc3ccccc32)cc1
95.9

Hello, I am looking for reported GTP binding, percent of control with GTPase HRas (Homo sapiens) for Cc1cc(OCCCn2cc(C(=O)O)c3ccccc32)ccc1Cl . Could you help?
83.9

Please provide the recorded GTP binding, percent of control for Cc1ccc(C)c(OCCCn2cc(C(=O)O)c3ccccc32)c1 , tested on GTPase HRas (Homo sapiens).
88.6

====

# maps each entry to its binding (% of control)
Tested on: anti-desmoglein-3 scFv antibody binding to human DSG3
assay-summary: inhibitors of anti-DSG3 scFv binding to DSG3, pilot screen, biochemical, validation compound set, bead-based, flow cytometry (AID 588368);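 note: signal is the median channel fluorescence of bead-bound GFP antibody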
condition-context: Protein G beads, DSG3-Fc, scFv-GFP binding, at 10 µM, stronger effect = lower value
Your answer is read as %, so omit the unit and give the number.

Looking for the measured binding (% of control) of CC(C)C[C@H]1C(=O)N2CCCC2[C@]2(O)O[C@](NC(=O)[C@@H]3C=C4c5cccc6[nH]cc(c56)CC4N(C)C3)(C(C)C)C(=O)N12 (some centres undefined) , can you help?
109

Param item = COc1ccccc1CN1CCCCC1c1cccnc1 (centres undefined) ; retrieve measured binding (% of control).
97.1

For CC(C)[C@@]1(NC(=O)[C@@H]2C[C@@H]3c4cccc5[nH]cc(c45)C[C@H]3N(C)C2)O[C@@]2(O)[C@@H]3CCCN3C(=O)[C@H](Cc3ccccc3)N2C1=O , what is its reported binding (% of control)?
114

Dear colleague, I am looking for the recorded binding (% of control) of the following molecule: CCn1ccnc1CN1CCCC(C(=O)c2cc(F)ccc2OC)C1 (centres undefined)
98.4

====

Tested on: Botulinum neurotoxin type F light chain protease (Clostridium botulinum)
assay-summary: Botulinum neurotoxin type F light chain protease inhibition, multiplex microsphere flow cytometry, validation set (AID 588459)
condition-context: multiplex microsphere protease substrate cleavage assay, at 10 µM, stronger effect = higher value
measure: inhibition (%)
Note: unit % is implicit; provide only the numeric part.

Before answering, review these 3 worked examples.
>  <compound>
O=C1OC(Nc2ccc3c(c2)OCO3)c2ccccc21 (stereo not drawn)

>  <unit-annotation>
%

>  <inhibition>
0.9

$$$$
>  <compound>
COc1ccc(/C=C/C(=O)NC(=S)NN2CCCCC2c2cccnc2)cc1 (stereo not drawn)

>  <unit-annotation>
%

>  <inhibition>
3.7

$$$$
>  <compound>
COc1ccc(/C=C2\CCc3ccccc3C2=O)c(OC)c1OC

>  <unit-annotation>
%

>  <inhibition>
6.4

$$$$

Tell me the measured inhibition of COc1ccc(C2CNC(=O)C2)cc1OC1CCCC1 (stereo not drawn) , please.
7.8

Sample O=C(O)c1ccc(-c2ccc(O)c(F)c2)cc1 — what was its inhibition?
-6.5

Dear colleague, I am looking for the recorded inhibition of the following compound: COc1ccccc1-c1ccc(/C=C2/C=C(CC(C)C)OC2=O)o1
4.8

====

Tested on: Botulinum neurotoxin type F light chain protease (Clostridium botulinum)
assay-summary: Botulinum neurotoxin type F light chain protease inhibition, multiplex microsphere flow cytometry, validation set (AID 588459)
condition-context: multiplex microsphere protease substrate cleavage assay, at 10 µM, stronger effect = higher value
Activity calls are given as the source filed them. The rule behind the calls is not given here.
The entries below are paired with their reported inhibition.

>  <molecule>
COc1cc2nc(N3CCN(C(=O)C4COc5ccccc5O4)CC3)nc(N)c2cc1OC (configuration not stated)

>  <inhibition>
-0.3% (inactive)

$$$$
>  <molecule>
C=CCN1C(=O)c2oc3ccccc3c(=O)c2C1c1ccc(O)c(OC)c1 (configuration not stated)

>  <inhibition>
-1.5% (inactive)

$$$$
>  <molecule>
CCOC(=O)C1(CCCc2ccccc2)CCN(C2CCN(C(C)=O)CC2)CC1

>  <inhibition>
0.1% (inactive)

$$$$
>  <molecule>
COc1ccc(C(=O)/C=C/c2ccc(OC(=O)c3cc(OC)c(OC)c(OC)c3)cc2)cc1

>  <inhibition>
2.9% (inactive)

$$$$
>  <molecule>
COc1ccccc1C(CCN(Cc1ccccc1)C(C)=O)c1ccco1 (configuration not stated)

>  <inhibition>
-6.5% (inactive)

$$$$

Given the molecule CN1C(=O)C(O)(CC(=O)c2ccccc2O)c2cc(Br)ccc21 (configuration not stated) , what is its reported inhibition?
3.2% (inactive)

Request the reported inhibition associated with CC(=O)[C@@]1(O)CC[C@H]2[C@@H]3CCC4=CC(=O)CC[C@]4(C)[C@H]3CC[C@@]21C
11.2% (inactive)

====

Quick reference for inhibition among some compounds
assay-target: Lethal factor (Bacillus anthracis) (UniProt P15917)
assay-summary: Lethal factor protease inhibitors, Bacillus anthracis, multiplex microsphere cleavage assay, validation set (AID 588461)
condition-context: flow cytometry, at 10 µM, stronger effect = higher value
Numbers only; they are read as %.

>  <smiles-entry>
CCc1cn([C@H]2C[C@H](O)[C@@H](CO)O2)c(=O)[nH]c1=O

>  <inhibition, %>
1.6

$$$$
>  <smiles-entry>
O=C(c1ccccc1)N1CCN(C(=O)c2ccccc2)CC1

>  <inhibition, %>
-0.8

$$$$
>  <smiles-entry>
COc1ccc(CC(=O)c2c(O)cc(O)cc2O)cc1OC

>  <inhibition, %>
-2.8

$$$$
>  <smiles-entry>
COc1ccc(C2C3=C(CC(C)(C)CC3=O)N(C)C3=C2C(=O)CC(C)(C)C3)cc1

>  <inhibition, %>
-5.6

$$$$

Reported inhibition for Lethal factor (Bacillus anthracis) (UniProt P15917), given O=C(/C=C/c1ccccc1)c1ccccc1 ?
-0.6

State its inhibition on Lethal factor (Bacillus anthracis) (UniProt P15917): CSc1cccc(NC(=O)/C=C/c2ccccc2)c1
-8.2

====

assay-target: Beta-2 adrenergic receptor (Homo sapiens) (UniProt P07550)
Sequence (P07550 whole entry, looked up): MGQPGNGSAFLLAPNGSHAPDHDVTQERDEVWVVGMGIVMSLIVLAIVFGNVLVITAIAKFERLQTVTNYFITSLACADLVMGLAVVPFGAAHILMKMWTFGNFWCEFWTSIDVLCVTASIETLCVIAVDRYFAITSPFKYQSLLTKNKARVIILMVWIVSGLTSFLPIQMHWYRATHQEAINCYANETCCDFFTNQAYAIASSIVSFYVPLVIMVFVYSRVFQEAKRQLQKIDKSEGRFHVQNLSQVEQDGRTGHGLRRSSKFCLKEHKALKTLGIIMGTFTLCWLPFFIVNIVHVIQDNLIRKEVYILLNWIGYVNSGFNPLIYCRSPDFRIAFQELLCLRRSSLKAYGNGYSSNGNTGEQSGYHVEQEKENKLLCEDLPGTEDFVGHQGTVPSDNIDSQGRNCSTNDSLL
assay-summary: beta2AR agonists driving receptor internalization, pilot screen, cell-based, FAP fluorogen, flow cytometry, validation set (AID 504459);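 note: agonist-driven loss of surface beta2AR via internalization measured by FAP dye flow cytometry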
condition-context: Am2.2-beta2AR cells, FAP surface receptor flow cytometry; at 10 µM; stronger effect = higher value
measure: response (%)
Report as a plain number; the unit % is understood.

>  <molecule>
CN[C@H]1C[C@H]2O[C@@](C)([C@H]1OC)n1c3ccccc3c3c4c(c5c6ccccc6n2c5c31)C(=O)NC4

>  <assay-target>
Beta-2 adrenergic receptor (Homo sapiens) (UniProt P07550)

>  <test-result>
12

$$$$
>  <molecule>
CCC(COC(=O)c1cc(OC)c(OC)c(OC)c1)(c1ccccc1)N(C)C (stereo not given)

>  <assay-target>
Beta-2 adrenergic receptor (Homo sapiens) (UniProt P07550)

>  <test-result>
-24.8

$$$$

Recorded response for CC(C)C(=O)Nc1ccc(S(=O)(=O)N2CC3CC(C2)c2cccc(=O)n2C3)cc1 (stereo not given) , please?
-5.34

Query (molecule): CN1C2CCC1CC(OC(=O)CCN1CCCC1)C2 (stereo not given) ; field requested: response
-8.97

Give the measured response of Cc1ccc(-n2c(C)cc(/C=C3/C(=O)NC(=O)N(C)C3=O)c2C)cc1 .
3.21

====

Below is a list of entries, each paired with its recorded aptamer binding inhibition value.
assay-target: Beta-adrenergic receptor kinase 1 (Homo sapiens)
assay-summary: GRK2 binders displacing RNA aptamer, biochemical, validation, human GRK2, bead flow cytometry (AID 488806)
condition-context: bead-bound GRK2, FAM-aptamer displacement, at 10 µM, stronger effect = higher value
Report as a plain number; the unit % is understood.

>  <molecule>
CN(C)[C@@H]1C(=O)C(C(N)=O)=C(O)[C@@]2(O)C(=O)C3=C(O)c4c(O)cccc4[C@@](C)(O)[C@H]3[C@H](O)[C@@H]12

>  <test-result>
26

$$$$

Returns the measured aptamer binding inhibition for the input molecule. Input: Fc1ccc(C(OCCN2CCCC2)c2ccc(Br)cc2)cc1 (centres undefined)
-9

Look up aptamer binding inhibition: COc1cc2c3cc1Oc1cc(ccc1O)C[C@@H]1c4c(cc(OC)c(O)c4Oc4ccc(cc4)C[C@H]3N(C)CC2)CCN1C
2

So what does the record say about aptamer binding inhibition for O=C1CC[C@@]2(O)[C@H]3Cc4ccc(O)c5c4[C@@]2(CCN3CC2CC2)[C@H]1O5 ?
2

The origin of these recorded values is PubChem BioAssay.
